Test system: LEWIS LUNG cells
Test: sulforhodamine B cytotoxicity assay, 72 hour drug exposure, Lewis lung
Assay type: cell-based
Conditions: Lewis lung carcinoma
MEASUREMENT_TYPE: GI50

Here are 2 molecules together with their reported answers.
1. CCCCCCCCCCCCC/C=C/[C@@H](OC(=O)CCC)[C@H](CO[Si](C)(C)C(C)(C)C)NC(=O)CCCCC [1-TBDMS-3-Butyrate C6-Cer, 1-TBDMS,3-butyrate, C6-Cer] = > 200 µM
2. CCCCCCCCCCCCC/C=C/[C@@H](O[Si](C)(C)C(C)(C)C)[C@H](CO)NC(=O)CCCCC [3-TBDMS C6-Ceramide, 3-TBDMS C6-Cer] = > 200 µM

Hey, quick one: what's GI50 for each of these?
1. CCCCCCCCCCCCC/C=C/[C@@H](O)[C@H](CO[Si](C)(C)C(C)(C)C)NC(=O)CCCCC [1-TBDMS C6-Ceramide, 1-TBDMS C6-Cer]
2. CCCCCCCCCCCCC/C=C/[C@@H](O[Si](C)(C)C(C)(C)C)[C@H](CO[Si](C)(C)C(C)(C)C)NC(=O)CCCCC [1,3-DiTBDMS C6-Ceramide, 1,3 DiTBDMS C6 Cer]
3. CCCCCCCCCCCCC/C=C/[C@@H](O)[C@@H](N)CO [Sphingosine, reference compound]

Result:
["> 200 µM", "> 200 µM", "12.2 µM"]
